Cited source: PubChem BioAssay (NCI)

System: CCRF-CEM leukemia
Assay: NCI tumour cell line growth inhibition, 48 h
Endpoint label: TGI

Recorded TGI, per entry:
CC1=NC2(C(=O)O)C3(C(=O)O)N=C(C)OC3(C(F)(F)F)C2(C(F)(F)F)O1 (stereo not drawn) ... > 100 µM
CCN(CC)P(=O)(c1ccc2c(c1)OCCOCCOCCOCCO2)N(CC)CC ... > 100 µM
CN1CCC2(CC1)C(=O)Nc1cc(NC(=O)c3ccc4c(c3)C[C@@H]3C(C)(C)[C@H](O)[C@H](F)C[C@@]3(C)O4)ccc12 ... > 100 µM
COC(=O)[C@H](Cc1ccccc1)NC(=O)N(CCN(CCC#N)C(=O)N[C@H](C(=O)OC)C(C)C)c1ccccc1 ... > 100 µM
O=C1c2cccnc2S(=O)(=O)N1c1ccc(Br)cc1 ... > 100 µM

Form: compound = Cc1c2ccccc2c(/C=N/NC(=O)CSCC(=O)N/N=C/c2c3ccccc3c(C)c3ccccc23)c2ccccc12 ; TGI = > 72.4 µM

Form: compound = CCCN1CCC(Oc2cc(Nc3nc(Nc4cccc(F)c4C(N)=O)c4cc[nH]c4n3)c(OC)cc2Cl)CC1 ; TGI = 10.1 µM

Form: compound = CC(=O)Nc1ccc(CC[C@H]2CCC/C=C/[C@@H]3C[C@H](O)C[C@H]3[C@H](O)/C=C/C(=O)O2)cc1 ; TGI = > 100 µM

###

System: NCI-H23 lung
Assay: NCI tumour cell line growth inhibition, 48 h
Endpoint label: TGI (µM)
Your answer is read as µM, so omit the unit and give the number.

O=C(CSc1nc2ccccc2c(=O)n1-c1ccccc1)N=Nc1c(O)[nH]c2ccc(Br)cc12 ... 10.8
O=[N+]([O-])c1ccc(Cl)c(C2CC(c3cccc4ccccc34)=Nc3ccccc3S2=O)c1 (stereo not given) ... 17.4
CCCCCOC(=O)c1c(C)[nH]c(/C=C2\N=C(c3ccc[nH]3)C=C2OC)c1C ... 1.47
Fc1ccc(/C=C2\COCC3=C2NC(=S)NC3c2ccc(F)cc2)cc1 (stereo not given) ... 50.7
CN(N=O)C(=O)NC(CCCCNC(=O)OCc1ccccc1)C(=O)OCc1ccccc1 (stereo not given) ... 51.3

Form: compound = O=C1CC(Nc2ccccc2)c2c(Cl)sc(Cl)c21 (stereo not given) ; TGI = 3.75

Form: compound = COc1cc(-c2csc(NC(=O)Nc3ccc(Cl)cc3)n2)cc(OC)c1OC ; TGI = 10.9

Form: compound = Clc1ccc2c(NC3CCC(NC4CCCCC4)CC3)ccnc2c1 (stereo not given) ; TGI = 35.9

###

Test system: MDA-MB-231 breast
Assay: NCI tumour cell line growth inhibition, 48 h
Endpoint label: TGI (µM)
Your answer is read as µM, so omit the unit and give the number.

Clc1cccc(-c2cc(-c3ccc4c(c3)OCCO4)[nH]n2)c1 ... 47.6

--- query ---
Form: molecule = O=c1[nH]c2c(C(F)(F)F)c(Cl)c(-c3ccccc3)nc2o1 ; TGI = 65.2

###

Listed next: entries and their corresponding TGI.
Tested on: EKVX NSCLC
Assay: NCI tumour cell line growth inhibition, 48 h

Recorded TGI, per entry:
COc1cc(-c2csc(NC(=O)Nc3ccc(Cl)cc3)n2)cc(OC)c1OC ... > 64.5 µM
CCOc1cc2c(cc1OC)c[n+](C)c1c3cc(OC)c(OC)cc3ccc21 ... > 100 µM
CSC(=Nc1ccccc1)c1c(C)[nH]n(-c2ccccc2)c1=O ... > 100 µM
O=C(Nc1ccccc1/C=C/c1n[nH]c2ccccc12)c1ccccc1 ... 8.91 µM

Form: compound = CN1CCN(c2n[nH]c(=O)c3c2nnn3Cc2ccccc2)CC1 ; TGI = > 100 µM

Form: compound = COC1CCC(O)C(CO)O1 (stereo not drawn) ; TGI = > 100 µM

Form: compound = O=C1CC(Nc2ccccc2)c2c(Cl)sc(Cl)c21 (stereo not drawn) ; TGI = 3.4 µM

Form: compound = COCCn1c(Nc2ccc(C(=O)NO)cc2)nc2ccccc21 ; TGI = 21.4 µM

Form: compound = CC(NC(=O)c1ccc(Cl)c(Cl)c1)c1ccc(-c2ccccc2)cc1 (stereo not drawn) ; TGI = > 100 µM

Form: compound = CN(c1ccccc1)c1nc(=[N+](C)C)ss1 ; TGI = > 100 µM

Form: compound = O=[N+]([O-])c1ccc(Cl)c(C2CC(c3cccc4ccccc34)=Nc3ccccc3S2=O)c1 (stereo not drawn) ; TGI = > 100 µM

Form: compound = CCOP(=O)(OCC)/C(C#N)=C/c1nc[nH]c1C ; TGI = > 100 µM

Form: compound = C=C(C)[C@@H]1CC[C@]2(C(=O)OC)CC[C@]3(C)[C@H](CC[C@@H]4[C@@](C)(CCc5nn[nH]n5)[C@H](C(=C)C)CC[C@]43C)[C@@H]12 ; TGI = 61 µM

Form: compound = Clc1ccc2c(NC3CCC(NC4CCCCC4)CC3)ccnc2c1 (stereo not drawn) ; TGI = 43 µM

###

System: ACHN renal
Test: NCI tumour cell line growth inhibition, 48 h
Endpoint label: TGI

Recorded TGI, per entry:
Clc1ccc(NCNC2Nc3ccccc3N2)cc1Cl ... > 100 µM
Nc1nc(N)c2cc(S(=O)(=O)c3cccc(C(F)(F)F)c3)ccc2n1 ... > 100 µM
O=S1(=O)[C@H](c2ccccc2)c2c(-c3ccccc3)sc(-c3ccccc3)c2[C@@H]1c1ccccc1 ... > 100 µM
CN(C)CCNc1c(O)c2c(c(O)c1Cl)C(=O)C=CC2=O ... 9.76 µM
COC1C(OC(=O)/C=C/C=C/C=C/C=C/C(=O)O)CCC2(CO2)C1C1(C)OC1CC=C(C)C (stereo not given) ... 49 µM

Form: compound = CCOC(=O)Cn1nnc2ccc(Nc3nc4ccccc4nc3C(=O)OCC)cc21 ; TGI = > 100 µM

Form: compound = Cc1cc(NC(=O)NCCCOc2ccc(N3C(N)=NC(N)=NC3(C)C)cc2Cl)ccc1S(=O)(=O)F ; TGI = > 100 µM

Form: compound = CC(C)OC(=O)Nc1c([N+](=O)[O-])cc(C(F)(F)F)cc1[N+](=O)[O-] ; TGI = > 100 µM

Form: compound = COc1cccc(C2CC(C)(O)Oc3cc4c(cc32)OCO4)c1 (stereo not given) ; TGI = > 100 µM

Form: compound = OC(c1ccccc1)c1c(-c2ccccc2)[nH]c(-c2ccccc2)c1C(O)c1ccccc1 (stereo not given) ; TGI = 11.9 µM

###

Test system: SF-268 CNS
Experiment: NCI tumour cell line growth inhibition, 48 h
Endpoint label: TGI

O=C(CN1CCCCC1)c1ccc2[nH]c(=O)oc2c1 ... > 100 µM
CC(=O)N1N=C(c2ccccc2)NC(=O)C1c1cc(C)c(O)c(C)c1 (stereo not drawn) ... 34.3 µM
NCCNCCNCc1c2ccccc2c(CNCCNCCN)c2ccccc12 ... > 100 µM
COc1cc(-c2csc(NC(=O)Nc3ccc(Cl)cc3)n2)cc(OC)c1OC ... 20.8 µM
COC(=O)[C@H](Cc1ccccc1)NC(=O)N(CCN(CCC#N)C(=O)N[C@H](C(=O)OC)C(C)C)c1ccccc1 ... > 100 µM

--- query ---
Measured on SF-268 CNS, Cc1ccccc1NC(=O)C(=O)C(C1OC(=O)c2ccccc21)[N+](=O)[O-] (stereo not drawn) has a documented TGI of > 100 µM

###

Test system: A549 NSCLC
Experiment: NCI tumour cell line growth inhibition, 48 h
Listed next: entries and their corresponding TGI.

COc1cc(-c2csc(NC(=O)Nc3ccc(Cl)cc3)n2)cc(OC)c1OC ... 13.4 µM
COc1cc2c(c3nc4ccccc4nc13)-c1ccc(SC)c(=O)cc1[C@@H](NC(C)=O)CC2 ... > 100 µM
O=C1O/C(=C(\Br)c2ccc([N+](=O)[O-])cc2)c2ccccc21 ... > 100 µM

Form: compound = CCCCCCCCCCCCCOCCOCCOCCCCC(O)CCCCCCCCCC1=C[C@H](C)OC1=O (some centres undefined) ; TGI = 36.9 µM

Form: compound = CCn1c(-c2nonc2N)nc2cnc(Oc3cccc(NC(=O)c4ccc(OCCN5CCOCC5)cc4)c3)cc21 ; TGI = > 25 µM

Form: compound = CC(=O)N1N=C(c2ccccc2)NC(=O)C1c1cc(C)c(O)c(C)c1 (centres undefined) ; TGI = 66.1 µM

Form: compound = Clc1ccc2c(NC3CCC(NC4CCCCC4)CC3)ccnc2c1 (centres undefined) ; TGI = 17.3 µM

###

Test system: SR leukemia
Assay: NCI tumour cell line growth inhibition, 48 h
Where a SMILES comes first, the peptide text is derived from it. [ ]: non-standard residue; d: D form. ξ: configuration not given here. Pentanoyl(2-O,4-OH,5-Cl) = O=C(O)C(O)CC(O)CCl; Ile(3ξ) = CCC(C)[C@H](N)C(=O)O; NMeV = CN[C@H](C(=O)O)C(C)C; NMeA = CN[C@@H](C)C(=O)O; βAla = NCCC(=O)O
Listed next: entries and their corresponding TGI.

Recorded TGI, per entry:
CSC(=Nc1ccc([N+](=O)[O-])cc1C#N)NC(=O)c1ccccc1 ... > 100 µM
C/C(=C\CCC1=CC(=O)OC1)CCC1C2C(=O)CC(C)[C@@]3(C)CC[C@]1(C)[C@@]23C (stereo not given in full) ... > 10 µM
O=c1c2ccccc2c(=O)n2n1-c1cccc(c1)CSSCc1cccc-2c1 ... > 100 µM
Cc1cccc(-c2nc(=S)[nH][nH]2)c1 ... > 100 µM
Nc1nc(N)c2cc(-c3cc4ccccc4[nH]3)ccc2n1 ... 60.5 µM

Form: compound = Cc1cc(C)c2c(c1)CSCc1cc(C)cc(C)c1-2 ; TGI = 47.4 µM

Form: compound = CCOc1cc2c(cc1OC)c[n+](C)c1c3cc(OC)c(OC)cc3ccc21 ; TGI = > 100 µM

Form: compound = O=C(O)CSC1=NCCN1 ; TGI = > 100 µM

Form: compound = O=C1c2cccnc2S(=O)(=O)N1c1ccc(Br)cc1 ; TGI = > 100 µM

Form: compound = Cc1cccc(-c2cc(=O)c3cccnc3[nH]2)c1 ; TGI = > 100 µM

Form: compound = CC1OC1C(=O)P(=O)(O)O (stereo not given) ; TGI = > 100 µM

Form: compound = Clc1ccc(NCNC2Nc3ccccc3N2)cc1Cl ; TGI = > 100 µM

Form: compound = CCC(C)[C@@H]1NC(=O)[C@@H]2CCCN2C(=O)C(CC(O)CCl)OC(=O)CCNC(=O)[C@H](C)N(C)C(=O)[C@H](C(C)C)N(C)C1=O (stereo not given in full) (cyclo([Ile(3ξ)][NMeV][NMeA][βAla][Pentanoyl(2-O,4-OH,5-Cl)]P)) ; TGI = > 100 µM
